Data origin: patent US10202593B2

- System: LPETG (Abz-LPETGK(Dnp)-CONH2)
- test-summary: In vitro sortase kinetics HPLC assay, LPETG substrate
- Assay type: biochemical
- experimental-parameters: substrate wt (LPETG); 10 mM GGG
readout-label: kcat, 10 mM GGG (Hz)
Please don't drop the unit; write it after the number.

Some solved entries appear below for comparison.
SrtA: wild-type Staphylococcus aureus sortase A (SEQ ID NO: 1) (protein, S. aureus) MKKWTNRLMTIAGVVLILVAAYLFAKPHIDNYLHDKDKDEKIEQYDKNVKEQASKDKKQQAKPQIPKDKSKVAGYIEIPDADIKEPVYPGPATPEQLNRGVSFAEENESLDDQNISIAGHTFIDRPNYQFTNLKAAKKGSMVYFKVGNETRKYKMTSIRDVKPTDVEVLDEQKGKDKQLTLITCDDYNEKTGVWEKRKIFVATEVK | 1.221 Hz
2A.6C: 5mut + A104H K138P K152I D160K* K162R I182V (protein) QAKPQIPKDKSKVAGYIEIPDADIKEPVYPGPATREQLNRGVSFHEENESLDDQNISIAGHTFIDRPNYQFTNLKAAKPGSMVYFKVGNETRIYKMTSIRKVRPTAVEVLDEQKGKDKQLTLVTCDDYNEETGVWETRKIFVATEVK | 0.07676 Hz

# input for lookup
What value of kcat, 10 mM GGG (Hz) has been recorded for this entry: eSrtA(2A-4): 5mut + A104H K162R V168I I182V (protein) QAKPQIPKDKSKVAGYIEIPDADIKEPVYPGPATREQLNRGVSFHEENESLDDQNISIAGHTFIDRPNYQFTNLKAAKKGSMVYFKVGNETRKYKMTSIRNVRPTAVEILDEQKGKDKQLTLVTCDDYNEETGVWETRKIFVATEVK
0.09356 Hz
